For each of the binders below, state its pKd.
Molecular target: T1, hRET.mmh (human, UniProt P07949 29-635, biotinylated in the ELISA of Example 4 (biot-hRET.mmh); not in the SPR of Example 3)
T1 construct: also called biot-hRET.mmh; soluble monomeric human RET
Assay: SPR Biacore T200, mAb capture, 37 C
Numbers only, as −log10 of the molar value.

Check out these entries, answers already filled in.
| Binder | pKd |
| --- | --- |
| H4H8083P (antibody, human IgG4, V domains shown, human IgG4 Fc (H4H prefix)) VH: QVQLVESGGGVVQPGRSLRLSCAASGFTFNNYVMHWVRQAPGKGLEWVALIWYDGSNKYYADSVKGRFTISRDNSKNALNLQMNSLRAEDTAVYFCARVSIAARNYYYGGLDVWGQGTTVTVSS VL: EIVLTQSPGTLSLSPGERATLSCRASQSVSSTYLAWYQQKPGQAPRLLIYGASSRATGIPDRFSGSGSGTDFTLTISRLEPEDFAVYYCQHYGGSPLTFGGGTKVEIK | 8.04 |
| H4H8071P (antibody, human IgG4, V domains shown, human IgG4 Fc (H4H prefix)) VH: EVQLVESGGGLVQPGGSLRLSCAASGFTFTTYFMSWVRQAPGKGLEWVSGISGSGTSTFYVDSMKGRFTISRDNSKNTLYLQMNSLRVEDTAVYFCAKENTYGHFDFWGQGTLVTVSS VL: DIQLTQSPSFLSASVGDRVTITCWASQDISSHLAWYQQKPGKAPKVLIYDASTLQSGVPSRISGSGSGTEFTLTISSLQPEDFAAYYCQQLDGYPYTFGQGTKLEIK | 8.42 |

Let us move to another entry and its pKd.
Form field pKd, entry H4H8076P (antibody, human IgG4, V domains shown, human IgG4 Fc (H4H prefix)) VH: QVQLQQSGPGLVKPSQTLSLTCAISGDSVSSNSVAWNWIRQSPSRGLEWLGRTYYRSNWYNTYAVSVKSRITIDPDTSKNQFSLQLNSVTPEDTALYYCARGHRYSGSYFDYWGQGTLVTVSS VL: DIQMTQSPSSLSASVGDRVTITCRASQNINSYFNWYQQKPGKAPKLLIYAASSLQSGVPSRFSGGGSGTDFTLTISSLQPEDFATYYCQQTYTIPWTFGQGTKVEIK : 8.37

// provenance: patent US20220185900A1
